# EXPERIMENTAL SYSTEM: AM1 (CRLR+RAMP2) receptor, lungs of dogs
# Sequence (A0A8I3NWR4 25-462): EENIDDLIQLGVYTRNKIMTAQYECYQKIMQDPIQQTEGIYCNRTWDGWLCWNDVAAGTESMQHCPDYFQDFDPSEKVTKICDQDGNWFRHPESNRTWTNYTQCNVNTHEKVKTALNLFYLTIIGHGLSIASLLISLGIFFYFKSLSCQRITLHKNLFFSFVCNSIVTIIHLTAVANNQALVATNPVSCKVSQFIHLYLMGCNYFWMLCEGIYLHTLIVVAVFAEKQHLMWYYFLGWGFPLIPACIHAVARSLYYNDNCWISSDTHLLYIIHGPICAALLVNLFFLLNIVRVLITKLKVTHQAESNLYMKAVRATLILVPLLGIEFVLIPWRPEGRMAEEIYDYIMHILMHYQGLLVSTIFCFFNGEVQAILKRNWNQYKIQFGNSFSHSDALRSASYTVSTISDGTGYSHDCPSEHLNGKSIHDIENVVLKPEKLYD
# MEASUREMENT DESCRIPTION: Displacement of labelled human adrenomedullin in the lungs of dogs
# Assay type: binding, dog
# STUDY CONDITIONS: displacement of labelled hAM
# Lookup of reported IC50 keyed by entry

> print(dat)
                                  substance  endpoint.result
1  hAM2(16-47): fragment 16-47 of hAM2 (QVQNLSHRLWQLMGPAGRQDSAPVDPSSPHSY) [reference compound]          0.98 µM
2  hAM(1-25): human adrenomedullin fragment, amino acids 1-25 (YRQSMNNFQGLRSFGCRFGTCTVQK)          ≥ 10 µM
3  hAM(40-52): human adrenomedullin fragment, amino acids 40-52 (NVAPRSKISPQGY)          ≥ 10 µM

Would you kindly share the measured IC50 for hAM(26-52): human adrenomedullin fragment, amino acids 26-52 (LAHQIYQFTDKDKDNVAPRSKISPQGY) ?
≥ 1 µM

Here is the next substance: PAMP: synthetic peptide of Table 1, not further defined (ARLDVASEFRKKWNKWALSR) [reference compound]
≥ 10 µM
